Assay: Pharmacokinetic study in rats
Assay type: in vivo
Conditions: male, Sprague Dawley, rat, blood, oral, 50 mg/kg
property: bioavailability (%)
The reply should contain only the number, in %.

Task item: Data request, read-out bioavailability, for COc1ccc2cc3n(c(=O)c2c1OC)CCc1cc2c(cc1-3)OCO2
Reply: 1.55
